Method: in vitro
Type: cell-based
Condition Description: human, HepG2 or HepG2.117 cells, 3-days incubation (unmarked values), ATPlite; mean value
Listed here: items and their measured CC50 at 3 days.

# CC50 at 3 days lookup, item COc1ccc(CNc2nc3c(c(=O)n2-c2ccccc2OC)C[C@H](C)N(C(=O)c2ccc(Cl)c(Cl)c2)C3)cc1 (single isomer, unassigned) [Compound C36Ab]
> 50 µM

# CC50 at 3 days lookup, item `CNC(=O)c1ccc(-n2c(NC(C)C)nc3c(c2=O)C[C@@H](C)N(C(=O)c2ccc(Cl)c(Cl)c2)C3)cc1F`
> 50 µM

# CC50 at 3 days lookup, item `COc1ccc(CNc2nc3c(c(=O)[nH]2)CCN(C(=O)c2ccc(Cl)cc2)C3)cc1`
42.8 µM

# CC50 at 3 days lookup, item `CNC(=O)c1ccc(-n2c(N[C@@H](C)CO)nc3c(c2=O)C[C@@H](C)N(C(=O)c2ccc(Cl)c(Cl)c2)C3)cc1`
> 50 µM

# CC50 at 3 days lookup, item CC(C)Nc1nc2c(c(=O)n1-c1ccc(S(C)(=O)=O)cc1)[C@@H](C)CN(C(=O)c1ccc(Cl)c(Cl)c1)C2 (single isomer, unassigned) [Compound C154A]
> 50 µM

# CC50 at 3 days lookup, item `CNC(=O)c1ccc(-n2c(N[C@@H](C)c3ccccc3F)nc3c(c2=O)C[C@@H](C)N(C(=O)c2ccc(Cl)c(Cl)c2)C3)cc1`
27.8 µM
